target: T1, recombinant human TIGIT (human, UniProt Q495A1 22-141, limits assumed)
T1 construct: recombinant human TIGIT used in Carterra SPR; also called hTIGIT
T1 sequence (looked up): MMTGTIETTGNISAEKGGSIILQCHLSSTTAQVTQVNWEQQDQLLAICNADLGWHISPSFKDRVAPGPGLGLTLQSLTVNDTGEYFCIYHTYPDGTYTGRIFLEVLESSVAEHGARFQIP
assay: SPR Carterra, average
outcome measure: kon (M⁻¹ s⁻¹)
Only the number, expressed in M⁻¹ s⁻¹, is required.

TIGIT-SC127 (Fc fusion, VHH-Fc fusion in assay) VHH: EVQLVESGGGLVQPGGSLRLSCAASGSIFSGNAMGWFRQAPGKERELVAAISNSASSTVYADSVKGRFTISADNSKNTAYLQMNSLKPEDTAVYYCARDWNLFDYWGQGTLVTVSS | 501000

Turning now to a further binder:
Per the record, TIGIT-SC166 (Fc fusion, VHH-Fc fusion in assay) VHH: EVQLVESGGGLVQPGGSLRLSCAASGFTFDRSWMGWFRQAPGKEREWVASVLRGGYTWYADSVKGRFTISADNSKNTAYLQMNSLKPEDTAVYYCAREGSGYASDYWGQGTLVTVSS has kon of 58400
